# SYSTEM NAME: Cytochrome P450 3A4 (Homo sapiens) (UniProt P08684)
# Sequence (P08684 whole entry, looked up): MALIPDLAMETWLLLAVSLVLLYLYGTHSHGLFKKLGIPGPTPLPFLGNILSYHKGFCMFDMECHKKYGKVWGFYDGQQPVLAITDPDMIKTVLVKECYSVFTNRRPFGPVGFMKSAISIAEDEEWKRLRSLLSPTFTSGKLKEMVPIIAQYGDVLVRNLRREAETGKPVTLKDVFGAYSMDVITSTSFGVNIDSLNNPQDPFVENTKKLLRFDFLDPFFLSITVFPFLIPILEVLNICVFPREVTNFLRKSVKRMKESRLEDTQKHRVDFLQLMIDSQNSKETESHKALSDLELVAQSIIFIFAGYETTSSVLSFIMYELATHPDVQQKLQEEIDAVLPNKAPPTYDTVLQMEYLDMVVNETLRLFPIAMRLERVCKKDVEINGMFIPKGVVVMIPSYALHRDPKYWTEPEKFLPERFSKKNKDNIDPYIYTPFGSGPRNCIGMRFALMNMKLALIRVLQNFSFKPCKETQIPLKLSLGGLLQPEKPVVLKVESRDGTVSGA
# ASSAY INFO: Cytochrome P450 Family 3 Subfamily A Member 4 (CYP3A4) small molecule antagonists: luciferase reporter qHTS assay (AID 1671201); also: nearly all actives have a fitted effect of over 50% in size; also: potency is read from the fitted curve at half-maximal effect
# EXPERIMENTAL PARAMETERS: P450-Glo CYP3A4 enzyme, luciferin luminescence, 1 h; series mostly up to 115 µM
Inconclusive results are not listed. The source made the active and inactive calls. Calls follow the shape of the dose curve; as a rule, active = well fitted inhibition curve with a large enough effect in the repeat runs; inconclusive = weak or mixed curves; inactive = no such curve, though single readings can be large or run the other way.
ASSAY METRIC: Potency

• CCCCCCCCCCCCOCC1CO1 (stereo not drawn) = inactive
• O=C(c1cc(O)c(O)c(O)c1)c1ccc(O)c(O)c1O = inactive
• O=C1CCCCC1 = inactive
• O=C(Oc1ccccc1)c1ccc(O)cc1 = inactive
• S=c1nc[nH]c2nc[nH]c12 = inactive
• O=Nc1ccc(O)cc1 = inactive
• CCCCCC/C=C/CCCCCCCC(=O)O = inactive
• CCC(=O)O = inactive
• CC(C)(C)C(=O)C1C(=O)c2ccccc2C1=O = 28 µM (active)
• CN(C)c1ccc(C(=N)c2ccc(N(C)C)cc2)cc1 = 39.4 µM (active)
• C[C@@H](O)[C@H]1C(=O)N2C(C(=O)O)=C(S[C@@H]3CN[C@H](C(=O)N(C)C)C3)[C@H](C)[C@H]12 = inactive
• CCOC(=O)/C=C\C(=O)OCC = inactive
• CC1=C(CC(=O)O)c2cc(F)ccc2/C1=C\c1ccc(S(C)=O)cc1 (stereo not drawn) = inactive
